Just for reference, patent US8178690B2 is where these values come from.

Measurement record for Bcl-2 (Homo sapiens, UniProt P10415); quantity recorded: Ki.

- test-smiles: "COc1c(CN2O[C@@H](CN)[C@@H]([C@H](C)O)[C@H]2C(=O)N[C@H]2C[C@H]3C[C@@H]([C@@H]2C)C3(C)C)cccc1-c1cc(C(=O)N[C@H](CN(C)C)CC(C)(C)C)cc(N(C)C)c1"
  system-name: "Bcl-2 (Homo sapiens, UniProt P10415)"
  Ki: "< 1 nM"
- test-smiles: "COc1c(CN2O[C@@H](CN)[C@@H]([C@H](C)O)[C@H]2C(=O)N[C@H]2C[C@H]3C[C@@H]([C@@H]2C)C3(C)C)cccc1-c1cc(C(=O)N[C@@H](Cc2ccccc2)CN(C)C)cc(N(C)CCO)c1"
  system-name: "Bcl-2 (Homo sapiens, UniProt P10415)"
  Ki: "< 1 nM"
- test-smiles: "COc1c(CN2O[C@@H](CO)[C@@H]([C@H](C)O)[C@H]2C(=O)N[C@H]2C[C@H]3C[C@@H]([C@@H]2C)C3(C)C)cccc1-c1cc(C(=O)N[C@@H](CC(C)C)CN2CCN(C)CC2)cc(N(C)C)c1"
  system-name: "Bcl-2 (Homo sapiens, UniProt P10415)"
  Ki: "< 1 nM"
- test-smiles: "CC(C)C[C@H](CN(C)C)NC(=O)c1cc(-c2cccc(CN3O[C@@H](CO)[C@@H]([C@H](C)O)[C@H]3C(=O)N[C@H]3C[C@H]4C[C@@H]([C@@H]3C)C4(C)C)c2OCC2CC2)cc(N(C)C)c1"
  system-name: "Bcl-2 (Homo sapiens, UniProt P10415)"
  Ki: "< 1 nM"
- test-smiles: "CCOc1c(CN2O[C@@H](CO)[C@@H]([C@H](C)O)[C@H]2C(=O)N[C@H]2C[C@H]3C[C@@H]([C@@H]2C)C3(C)C)cccc1-c1cc(C(=O)N[C@@H](Cc2cccs2)CN(C)C)cc(N(C)C)c1"
  system-name: "Bcl-2 (Homo sapiens, UniProt P10415)"
  Ki: "< 1 nM"
- test-smiles: "COc1c(-c2cc(C(=O)N[C@@H](Cc3ccccc3)CN(C)C)cc(N(C)C)c2)ccc(F)c1CN1O[C@@H](CN)[C@@H]([C@H](C)O)[C@H]1C(=O)N[C@H]1C[C@H]2C[C@@H]([C@@H]1C)C2(C)C"
  system-name: "Bcl-2 (Homo sapiens, UniProt P10415)"
  Ki: "< 1 nM"
- test-smiles: "CNC(=O)c1cc(-c2cccc(CN3O[C@@H](CN)[C@@H]([C@H](C)OC(=O)N(C)C)[C@H]3C(=O)N[C@H]3C[C@H]4C[C@@H]([C@@H]3C)C4(C)C)c2OC)cc(N(C)C)c1"
  system-name: "Bcl-2 (Homo sapiens, UniProt P10415)"
  Ki: "> 9 nM"
- test-smiles: "COc1c(CN2O[C@@H](CO)[C@@H]([C@H](C)O)[C@H]2C(=O)N[C@H]2C[C@H]3C[C@@H]([C@@H]2C)C3(C)C)cccc1-c1cc(Cl)cc(C(=O)N[C@@H](Cc2ccccc2)CN(C)C)c1"
  system-name: "Bcl-2 (Homo sapiens, UniProt P10415)"
  Ki: "< 1 nM"
- test-smiles: "COc1c(CN2O[C@@H](CN)[C@@H]([C@H](C)O)[C@H]2C(=O)N[C@H]2C[C@H]3C[C@@H]([C@@H]2C)C3(C)C)cccc1-c1cc(C(=O)N[C@@H]2CCN(C)C2)cc(N(C)C)c1"
  system-name: "Bcl-2 (Homo sapiens, UniProt P10415)"
  Ki: "< 1 nM"
- test-smiles: "CNC(=O)c1cc(-c2cccc(CN3O[C@@H](CNC(=O)CCC(=O)OC)[C@@H]([C@H](C)O)[C@H]3C(=O)N[C@H]3C[C@H]4C[C@@H]([C@@H]3C)C4(C)C)c2OC)cc(N(C)C)c1"
  system-name: "Bcl-2 (Homo sapiens, UniProt P10415)"
  Ki: "> 9 nM"
- test-smiles: "COc1c(CN2O[C@@H](CO)[C@@H]([C@H](C)O)[C@H]2C(=O)N[C@H]2C[C@H]3C[C@@H]([C@@H]2C)C3(C)C)cccc1-c1cc(C(=O)N[C@@H](Cc2ccccc2)CN(C)C)cc(N(C)CC(N)=O)c1"
  system-name: "Bcl-2 (Homo sapiens, UniProt P10415)"
  Ki: "< 1 nM"
- test-smiles: "COc1c(CN2O[C@@H](CO)[C@@H]([C@H](C)O)[C@H]2C(=O)N[C@H]2C[C@H]3C[C@@H]([C@@H]2C)C3(C)C)cccc1-c1cc(C(=O)N[C@@H](Cc2cccs2)CN(C)C)cc(N(C)C)c1"
  system-name: "Bcl-2 (Homo sapiens, UniProt P10415)"
  Ki: "< 1 nM"
- test-smiles: "COc1c(CN2O[C@@H](CO)[C@@H]([C@H](C)O)[C@H]2C(=O)N[C@H]2C[C@H]3C[C@@H]([C@@H]2C)C3(C)C)cccc1-c1cc(C(=O)N[C@H](CN(C)C)[C@@H](NS(C)(=O)=O)c2ccccc2)cc(N(C)C)c1"
  system-name: "Bcl-2 (Homo sapiens, UniProt P10415)"
  Ki: "< 1 nM"
- test-smiles: "COc1c(CN2O[C@@H](CO)[C@@H]([C@H](C)O)[C@H]2C(=O)N[C@H]2C[C@H]3C[C@@H]([C@@H]2C)C3(C)C)cccc1-c1cc(C(=O)N[C@@H](CC(C)C)CN(C)C)cc(N2CCCCC2)c1"
  system-name: "Bcl-2 (Homo sapiens, UniProt P10415)"
  Ki: "1 to 5 nM"
- test-smiles: "COc1c(CN2O[C@@H](CN)[C@@H]([C@H](C)O)[C@H]2C(=O)N[C@H]2C[C@H]3C[C@@H]([C@@H]2C)C3(C)C)cccc1-c1cc(C(=O)NCCN(C)C)cc(N(C)C)c1"
  system-name: "Bcl-2 (Homo sapiens, UniProt P10415)"
  Ki: "< 1 nM"
- test-smiles: "COc1c(CN2O[C@@H](CO)[C@@H]([C@H](C)O)[C@H]2C(=O)N[C@H]2C[C@H]3C[C@@H]([C@@H]2C)C3(C)C)cccc1-c1cc(C(=O)N[C@@H](Cc2ccccc2)CN(C)C)cc(N(C)CCO)c1"
  system-name: "Bcl-2 (Homo sapiens, UniProt P10415)"
  Ki: "< 1 nM"
- test-smiles: "COc1c(CN2O[C@@H](CO)[C@@H]([C@H](C)O)[C@H]2C(=O)N[C@H]2C[C@H]3C[C@@H]([C@@H]2C)C3(C)C)cccc1-c1cc(C(=O)N[C@@H](Cc2cccc(N)c2)CN(C)C)cc(N(C)C)c1"
  system-name: "Bcl-2 (Homo sapiens, UniProt P10415)"
  Ki: "< 1 nM"

----------
Consider the following Ki values measured on Bcl-2 (Homo sapiens, UniProt P10415).
Sequence (P10415 whole entry): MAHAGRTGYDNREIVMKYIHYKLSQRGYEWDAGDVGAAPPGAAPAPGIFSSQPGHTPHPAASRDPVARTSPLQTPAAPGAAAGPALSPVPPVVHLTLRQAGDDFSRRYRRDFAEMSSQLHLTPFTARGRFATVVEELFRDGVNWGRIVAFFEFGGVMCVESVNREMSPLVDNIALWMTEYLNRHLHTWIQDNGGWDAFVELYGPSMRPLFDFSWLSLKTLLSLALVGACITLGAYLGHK

- compound: "COc1c(CN2O[C@@H](CO)[C@@H]([C@H](C)O)[C@H]2C(=O)N[C@H]2C[C@H]3C[C@@H]([C@@H]2C)C3(C)C)cccc1-c1cc(C(=O)N(C)[C@@H](Cc2ccccc2)CN(C)C)cc(N(C)C)c1 [Compound 311]"
  Ki: "< 1 nM"
- compound: "CNC(=O)c1cc(-c2cccc(CN3O[C@@H](CNCc4ccncc4)[C@@H]([C@H](C)O)[C@H]3C(=O)N[C@H]3C[C@H]4C[C@@H]([C@@H]3C)C4(C)C)c2OC)cc(N(C)C)c1 [Compound 82]"
  Ki: "> 9 nM"
- compound: "COc1c(CN2O[C@@H](CO)[C@@H]([C@H](C)O)[C@H]2C(=O)N[C@H]2C[C@H]3C[C@@H]([C@@H]2C)C3(C)C)cccc1-c1cc(C(=O)N[C@H](CN(C)C)CC(C)(C)C)c(Br)c(N(C)C)c1 [Compound 257]"
  Ki: "< 1 nM"
- compound: "COc1c(CN2O[C@@H](CO)[C@@H]([C@H](C)O)[C@H]2C(=O)N[C@H]2C[C@H]3C[C@@H]([C@@H]2C)C3(C)C)cccc1-c1cc(CN)cc(C(=O)N[C@@H](Cc2ccccc2)CN(C)C)c1 [295 amine]"
  Ki: "< 1 nM"
- compound: "COc1c(CN2O[C@@H](CNC(=O)CCN(C)C)[C@@H]([C@H](C)O)[C@H]2C(=O)N[C@H]2C[C@H]3C[C@@H]([C@@H]2C)C3(C)C)cccc1-c1cc(C(=O)N[C@H](CN(C)C)CC(C)(C)C)cc(N(C)C)c1 [Compound 115]"
  Ki: "< 1 nM"
- compound: "CNC(=O)c1cc(-c2cccc(CN3O[C@@H](CNC(C)C)[C@@H]([C@H](C)O)[C@H]3C(=O)N[C@H]3C[C@H]4C[C@@H]([C@@H]3C)C4(C)C)c2OC)cc(N(C)C)c1 [Compound 97]"
  Ki: "> 9 nM"
- compound: "COc1c(CN2O[C@@H](CO)[C@@H]([C@H](C)O)[C@H]2C(=O)N[C@H]2C[C@H]3C[C@@H]([C@@H]2C)C3(C)C)cccc1-c1cc2c(c(C(=O)N[C@H](CN(C)C)CC(C)(C)C)c1)OCC2 [Compound 256]"
  Ki: "< 1 nM"
- compound: "COc1c(CN2O[C@@H](CO)[C@@H]([C@H](C)O)[C@H]2C(=O)N[C@H]2C[C@H]3C[C@@H]([C@@H]2C)C3(C)C)cccc1-c1cc(C(=O)N[C@@H](Cc2ccccc2)CN(C)C)cc(N(C)C)c1 [Compound 37]"
  Ki: "< 1 nM"
- compound: "COc1c(CN2O[C@@H](CO)[C@@H]([C@H](C)O)[C@H]2C(=O)N[C@H]2C[C@H]3C[C@@H]([C@@H]2C)C3(C)C)cccc1-c1cc(C(=O)N[C@H](CN(C)C)CC(C)(C)C)cc(N(C)C)c1 [Compound 1]"
  Ki: "< 1 nM"
